- studyTarget: PAF-receptor (Oryctolagus cuniculus)
- Construct: a precipitated blood platelet sample was obtained; from tissue; host or cells: rabbit blood platelets, membrane fraction from the 0.25 M / 1.5 M sucrose interface
- Sequence (G1TEI7 1-342): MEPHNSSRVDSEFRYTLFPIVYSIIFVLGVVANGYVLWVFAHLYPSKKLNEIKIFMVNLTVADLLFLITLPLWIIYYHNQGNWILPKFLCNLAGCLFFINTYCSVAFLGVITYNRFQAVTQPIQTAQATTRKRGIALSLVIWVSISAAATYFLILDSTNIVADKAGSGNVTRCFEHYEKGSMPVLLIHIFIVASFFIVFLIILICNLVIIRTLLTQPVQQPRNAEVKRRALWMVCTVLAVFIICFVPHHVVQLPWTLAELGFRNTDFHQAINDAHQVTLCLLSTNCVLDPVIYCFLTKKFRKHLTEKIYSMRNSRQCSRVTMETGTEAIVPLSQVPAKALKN
- experiment: Inhibitory effect on PAF-receptor binding
- Parameters: species or system rabbit
- Description: Blood samples were drawn from the heart of a rabbit. 1 part by volume of each sample was mixed immediately with 1/9 part of a 0.077 M solution of disodium ethylenediaminetetraacetate. After a similar procedure to that described in Experiment 2, a precipitated blood platelet sample was obtained. […] The specific binding of ³H-PAF was measured using a Wattman GF/C filter. […]

compound | studyTarget | unitOfMeasurement | IC50
O=C([C@@H]1CSC(c2cccnc2)N1)N1CCN(CCOC(c2ccccc2)c2ccccc2)CC1 (stereo partly shown) | PAF-receptor (Oryctolagus cuniculus) | nM | 51.2
O=C([C@@H]1CSC(c2cccnc2)N1)N1CCCN(CCOC(c2ccccc2)c2ccccc2)CC1 (stereo partly shown) | PAF-receptor (Oryctolagus cuniculus) | nM | 279
O=C([C@@H]1CSC(c2cccnc2)N1)N1CCCN(CCOC(c2ccc(F)cc2)c2ccc(F)cc2)CC1 (stereo partly shown) | PAF-receptor (Oryctolagus cuniculus) | nM | 390
O=C([C@@H]1CSC(c2cccnc2)N1)N1CCN(CCOC(c2ccc(F)cc2)c2ccc(F)cc2)CC1 (stereo partly shown) | PAF-receptor (Oryctolagus cuniculus) | nM | 19.1

====

- System: passive cutaneous anaphylaxis (PCA) in rats
- experiment: Inhibitory effect on passive cutaneous anaphylaxis (PCA) in rats
- Assay type: in vivo
- setupConditions: dose 6.4 mg/kg p.o., 60 minutes before antigen challenge, exuded Evans Blue vs control group
- Experimental: According to Mota's method [I. Mota, Immunology, 7, 681 - 699 (1964)], antiserum (256 times the PCA titer) of rat against egg albumin was prepared and diluted four times with physiological saline. […] 30 minutes after this last injection, the rats were sacrificed with carbon dioxide and the Evans Blue exuded in the dorsal intradermal portion was determined according to Harada's method (Harada et al., J. Pharm. Pharmac., 23, 218 - 219 (1971)]. […]
readoutName: Inhibitory rate (%)

molecule | measValue
O=C([C@@H]1CSC(c2cccnc2)N1)N1CCN(CCN2CCC(=C(c3ccccc3)c3ccccc3)CC2)CC1 (stereo partly drawn) | 42
O=C(NCCN1CCN2c3ccccc3Cc3ccccc3[C@@H]2C1)[C@@H]1CSC(c2cccnc2)N1 (stereo partly drawn) | 62
Cc1ccc(C(OCCN2CCN(C(=O)[C@@H]3CSC(c4cccnc4)N3)CC2)c2ccccc2)cc1 (stereo partly drawn) | 45
O=C(NCCN1CCN2c3ccc(F)cc3Cc3ccccc3[C@H]2C1)[C@@H]1CSC(c2cccnc2)N1 (stereo partly drawn) | 55
O=C(NCCN1CCN2c3ccccc3Cc3ccccc3[C@H]2C1)[C@@H]1CSC(c2cccnc2)N1 (stereo partly drawn) | 73
CN(CCOC(c1ccccc1)c1ccccc1)CCN(C)C(=O)[C@@H]1CSC(c2cccnc2)N1 (stereo partly drawn) | 33
